Assay Text: 28-day repeat-dose toxicity study, toxicokinetics of AMXT 1501 dicaprate
Format: in vivo, beagle dogs
Assay Conditions: both sexes, beagle, dog, plasma, po, 8 mg/kg/day, 8 mg/kg/day PO, DFMO 50 mg/kg/day, Day 28, M+F combined; read-out: AUC0-∞ Mean
Property Name: AUC(0-inf) (ng·h/mL)
Form entry: value (ng·h/mL) — number only.

input: Fill in the blank: the reported AUC(0-inf) of CCCCCCCCCCCCCCCC(=O)NCCCC[C@@H](N)C(=O)NCCCNCCCCNCCCN [AMXT 1501 dicaprate] is ____.
output: 3070

---

Assay Text: 28-day repeat-dose toxicity study, toxicokinetics of AMXT 1501 dicaprate
Type: in vivo, beagle dogs
Assay Conditions: both sexes, beagle, dog, plasma, po, 16 mg/kg/day, 16 mg/kg/day PO, DFMO 200 mg/kg/day, Day 1, M+F combined; read-out: Tmax Median
Property Name: Tmax (h)
Report as a plain number; the unit h is understood.

input: Quick one: Tmax for CCCCCCCCCCCCCCCC(=O)NCCCC[C@@H](N)C(=O)NCCCNCCCCNCCCN [AMXT 1501 dicaprate] ?
output: 6
